Reported IC50 values follow for various compounds
Target: Plasmepsin II (Plasmodium falciparum, UniProt P46925)
Sequence (P46925 whole entry): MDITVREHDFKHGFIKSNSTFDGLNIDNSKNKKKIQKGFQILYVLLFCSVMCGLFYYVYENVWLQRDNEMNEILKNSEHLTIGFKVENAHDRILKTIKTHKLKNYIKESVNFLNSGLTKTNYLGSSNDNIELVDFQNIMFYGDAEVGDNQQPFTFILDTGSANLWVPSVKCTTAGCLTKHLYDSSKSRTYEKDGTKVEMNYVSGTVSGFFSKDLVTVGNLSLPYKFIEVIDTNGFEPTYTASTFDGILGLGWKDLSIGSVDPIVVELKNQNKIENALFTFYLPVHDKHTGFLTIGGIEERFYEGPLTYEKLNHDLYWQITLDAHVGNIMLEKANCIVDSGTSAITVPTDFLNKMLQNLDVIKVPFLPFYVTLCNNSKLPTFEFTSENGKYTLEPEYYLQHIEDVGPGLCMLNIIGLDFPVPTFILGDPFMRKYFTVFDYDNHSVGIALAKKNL
Test: Inhibition of Plasmodium falciparum plasmepsin 2 using Dabcyl-ERNIef:LSFP-EDANS as substrate incubated for 40 mins by FRET assay
Give the quantity in nM, number only.

[in] Would you kindly share the measured IC50 for CCCCOc1ccc(C(=O)N(Cc2ccc(-c3ccccc3)cc2)C2CCN(Cc3ccccc3)CC2)cc1 ?
[out] 1700

Next compound, IC50 to be filled in.
[in] Using the record for CCCCCCCCCCCC(=O)N(Cc1ccc(-c2ccccc2)cc1)C1CCN(Cc2ccccc2)CC1 , report its IC50.
[out] 1800

----------
Target: UniProtKB P46925
Assay: Inhibition of Plasmodium falciparum plasmepsin 2 using fluorescently labeled peptide substrate by fluorescence method
Recorded log10(IC50) for the following molecules
Scale: log10; quantity: IC50; unit before log: nM

Solved cases below.
[in] # get_value(readout='log10(IC50)', item= CCCCCCCCc1ccc(S(=O)(=O)C2C3CCC(N3)C2NCc2ccc3ccccc3c2)cc1 (centres undefined) )
[out] 1.85

[in] log10(IC50) for CCCCCc1ccc(S(=O)(=O)C2C3CCC(N3)C2NCc2ccc3ccccc3c2)cc1 (centres undefined) ?
[out] 2.83

[in] State the recorded log10(IC50) for this entry: CCCCCCCCCc1ccc(S(=O)(=O)C2C3CCC(N3)C2NCc2ccc3ccccc3c2)cc1 (centres undefined)
[out] 2.18

Next:
[in] Could you share which log10(IC50) value was measured for O=S(=O)(c1ccc(CCCCC2CCCC2)cc1)C1C2CCC(N2)C1NCc1ccc2ccccc2c1 (centres undefined) ?
[out] 2.28

[in] // query log10(IC50) value for entry CCCCCCCCCCCc1ccc(S(=O)(=O)C2C3CCC(N3)C2NCc2ccc3ccccc3c2)cc1 (centres undefined)
[out] 3.29

[in] Form field: reported log10(IC50) of CC(C)CCCN(CCCC(C)C)CC(O)c1cc2c(c3ccccc13)CCCC2 (centres undefined)
[out] 4.28

----------
Molecular target: Plasmepsin II (Plasmodium falciparum, UniProt P46925)
Assay: Inhibition of Plasmodium falciparum plasmepsin 2 using Dabcyl-ERNIef:LSFP-EDANS as substrate incubated for 40 mins by FRET assay
pIC50: −log10 of the molar value.
Measured pIC50 of individual entries

Example compounds with recorded pIC50:
[in] Fill in the blank: the reported pIC50 of CC(=O)N1CC2CC(c3ccc(CCOc4ccccc4Cl)cc3)=C(C(=O)N(C)CCc3ccccc3)C(C1)N2 (stereo not drawn) is ____.
[out] 5.00 to 7.00

[in] # pIC50 lookup, item O=C(C1=C(c2ccc(CCCOc3ccccc3Cl)cc2)CCNC1)N(Cc1ccccc1Cl)C1CC1
[out] > 7.00

[in] Any idea what pIC50 was measured for CC(C)(C)c1ccc(C(=O)N(Cc2ccc(-c3ccccc3)cc2)C2CCN(Cc3ccccc3)CC2)cc1 ?
[out] < 4.70

[in] What does the data say about its pIC50? Entry: O=C(C1=C(c2ccc(CCCOc3c(F)ccc(F)c3F)cc2)CCNC1)N(Cc1ccccc1Cl)C1CC1
[out] 5.00 to 7.00

[in] Fill in the blank: the reported pIC50 of CC(=O)N1CC2CC(c3ccc(CCOc4ccccc4C(C)C)cc3)=C(C(=O)N(C)CCc3ccccc3)C(C1)N2 (stereo not drawn) is ____.
[out] 7.00 to 8.00

Others:
[in] Can you share its pIC50? I mean this compound: CC(=O)N1CC2CC(c3ccc(CCOc4cccc(Cl)c4)cc3)=C(C(=O)N(C)CCc3ccccc3)C(C1)N2 (stereo not drawn)
[out] 5.00 to 7.00

[in] Given the compound CCCCCc1ccc(C(=O)N(Cc2ccc(-c3ccccc3)cc2)C2CCN(Cc3ccccc3)CC2)cc1 , what is its reported pIC50?
[out] 7.05 to 7.15

[in] Find the recorded pIC50 belonging to CC(=O)N1CC2CC(c3ccc(CCOc4ccc(C(C)(C)C)cc4C)cc3)=C(C(=O)N(C)CCc3ccccc3)C(C1)N2 (stereo not drawn) and report it.
[out] 7.00 to 8.00

----------
Measured IC50 values are reported for all entries that follow.
Molecular target: Plasmepsin II (Plasmodium falciparum)
Assay: Inhibition of Plasmodium falciparum plasmepsin 2 using Dabcyl-ERNIef:LSFP-EDANS as substrate incubated for 40 mins by FRET assay

[in] State the recorded IC50 for this entry: CC(=O)N1CC2CC(c3ccc(CCOc4cccc(OC(F)(F)F)c4)cc3)=C(C(=O)N(C)CCc3ccccc3)C(C1)N2 (centres undefined)
[out] 10 to 100 nM

----------
The next entries give measured pIC50 for Cathepsin D (Homo sapiens, UniProt P07339).
pIC50: −log10 of the molar value.

Some solved cases for reference:
[in] Please provide the recorded pIC50 for c1cc(NNc2ccncc2)ccn1 , tested on Cathepsin D (Homo sapiens, UniProt P07339).
Sequence (P07339 65-162 limits assumed): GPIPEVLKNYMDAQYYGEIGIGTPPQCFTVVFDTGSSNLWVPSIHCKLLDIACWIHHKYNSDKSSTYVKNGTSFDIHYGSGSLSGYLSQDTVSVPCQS
Sequence (P07339 169-412 limits assumed): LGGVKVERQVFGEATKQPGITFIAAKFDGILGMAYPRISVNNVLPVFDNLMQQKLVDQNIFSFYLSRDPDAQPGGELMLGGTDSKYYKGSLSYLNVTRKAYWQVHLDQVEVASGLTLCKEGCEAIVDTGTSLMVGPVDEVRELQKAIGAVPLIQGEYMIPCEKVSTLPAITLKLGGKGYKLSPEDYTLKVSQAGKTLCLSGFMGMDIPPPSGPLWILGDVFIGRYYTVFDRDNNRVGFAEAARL
[out] 5.60 to 6.00

[in] State its pIC50 on Cathepsin D (Homo sapiens, UniProt P07339): c1ccc(NNc2ccccc2)cc1 [HYDRAZOBENZENE]
[out] 5.60 to 6.00

[in] Return pIC50 measured with Cathepsin D (Homo sapiens, UniProt P07339) given this molecule: NNC(=O)c1ccccc1[N+](=O)[O-]
[out] 5.60 to 6.00

[in] Tell me reported pIC50 for CCCC(=O)NN , tested with Cathepsin D (Homo sapiens, UniProt P07339).
[out] 5.60 to 6.00

[in] Form entry - test system: Cathepsin D (Homo sapiens, UniProt P07339); read-out: pIC50; molecule: NNC(=O)C(c1ccccc1)c1ccccc1
[out] 5.60 to 6.00

Next molecule, please.
[in] Param readout= pIC50; system= Cathepsin D (Homo sapiens, UniProt P07339); entry= COc1ccccc1C(=O)NN ; returns value.
[out] 5.60 to 6.00

----------
Target: Plasmepsin II (Plasmodium falciparum, UniProt P46925)
Test: Inhibition of Plasmodium falciparum plasmepsin 2 using fluorescently labeled peptide substrate by fluorescence method
Overview of reported IC50 across a group of compounds:
Number in nM, nothing else.

Below, 4 compounds whose answers are already recorded.
[in] Would you kindly share the measured IC50 for CCCCCCCc1ccc(S(=O)(=O)C2C3CCC(N3)C2NCc2ccc3ccccc3c2)cc1 (stereo unspecified) ?
[out] 50

[in] For the compound CCCCc1ccc(S(=O)(=O)C2C3CCC(N3)C2NCc2ccc3ccccc3c2)cc1 (stereo unspecified) , what IC50 is on record?
[out] 4190

[in] Need IC50, item O=S(=O)(c1ccc(CCCCC2CCC2)cc1)C1C2CCC(N2)C1NCc1ccc2ccccc2c1 (stereo unspecified)
[out] 170

[in] Value lookup for IC50; key = CC(C)CCCCc1ccc(S(=O)(=O)C2C3CCC(N3)C2NCc2ccc3ccccc3c2)cc1 (stereo unspecified)
[out] 30

Alright, here's another compound for you.
[in] Given the compound CCCCCN(CCCCC)CC(O)c1cc2c(c3ccccc13)CCCC2 (stereo unspecified) , what is its reported IC50?
[out] 5000

----------
// values below are reported pIC50
Biological target: Plasmepsin II (Plasmodium falciparum, UniProt P46925)
Assay: Inhibition of Plasmodium falciparum plasmepsin 2 using Dabcyl-ERNIef:LSFP-EDANS as substrate incubated for 40 mins by FRET assay
pIC50: −log10 of the molar value.

Here are 4 compounds together with their reported answers.
[in] Consider the compound shown here: CC(=O)N1CC2CC(c3ccc(CCOc4ccc(C)cc4C(C)(C)C)cc3)=C(C(=O)N(C)CCc3ccccc3)C(C1)N2 (stereo not given) What is its recorded pIC50?
[out] 5.00 to 7.00

[in] Which pIC50 value belongs to CC(=O)N1CC2CC(c3ccc(CCOc4cc(Cl)ccc4Cl)cc3)=C(C(=O)N(C)CCc3ccccc3)C(C1)N2 (stereo not given) ?
[out] 7.00 to 8.00

[in] Fill blank: measured pIC50 of the compound Cc1ccc(C)c(OCCCc2ccc(C3=C(C(=O)N(Cc4ccccc4Cl)C4CC4)CNCC3)cc2)c1C is ____.
[out] 5.00 to 7.00

[in] # get_value(readout='pIC50', item= CCc1ccc(C(=O)N(Cc2ccc(-c3ccccc3)cc2)C2CCN(Cc3ccccc3)CC2)cc1 )
[out] 4.81

# evaluate next
[in] Look up pIC50 for this compound: COc1cccc(OCCc2ccc(C3=C(C(=O)N(C)CCc4ccccc4)C4CN(C(C)=O)CC(C3)N4)cc2)c1 (stereo not given)
[out] 7.00 to 8.00

----------
Biological target: Plasmepsin II (Plasmodium falciparum)
Experiment: Inhibition of Plasmodium falciparum plasmepsin 2 preincubated for 30 mins followed by DABCYL-Glu-Arg-Nle-Phe-Leu-Ser-Phe-Pro-EDANS addition measured every minute for 8 to 15 mins by FRET assay
value.kind: IC50

[in] Return IC50 measured with Plasmepsin II (Plasmodium falciparum) given this compound: CCCCCc1ccc(Cn2nnc(CCN(CC)CC)c2-c2ccc(-c3ccc(OC)cc3)cc2)cc1
[out] 5200 nM

[in] Hello, I am looking for reported IC50 with Plasmepsin II (Plasmodium falciparum) for CCN(CC)CCc1nnn(-c2ccc(C)cc2)c1-c1ccc(-c2ccc(OC)cc2)cc1 . Could you help?
[out] > 200000 nM

[in] Request - read-out IC50 | tested on Plasmepsin II (Plasmodium falciparum) | compound CCCCCc1ccc(-n2nnc(CCN(CC)CC)c2-c2ccc(-c3ccc(OC)cc3)cc2)c(Cl)c1
[out] 600 nM

Please look at the following compound next.
[in] Notebook entry, Plasmepsin II (Plasmodium falciparum) assay: IC50 of CCCCCc1ccc(-n2nnc(CCN(CC)CC)c2-c2ccc(-c3ccc(OC)cc3)cc2)cc1 = ?
[out] 600 nM
